Tested on: MDA-MB-231
Test: MTT cytotoxicity, MDA-MB-231 (breast)
Format: cell-based, human
Details: MTT test, 72 hrs
Excerpt: The in vitro antitumor activity of CP had been deeply evaluated in several human cancer cell lines by in vitro cytotoxicity assays. CP cytotoxicity has been detected in a large panel of human cell lines derived from a wide variety of solid tumors, including refractory tumors. In Table 1, the cytotoxicity parameters IC50 (that is the median growth inhibitory concentrations calculated from dose-survival curves via MTT test) are tabulated. […]
Give measured pIC50 for each item. Keep answers brief.
Answers are plain numbers, as −log10 of the molar value.

MOLECULE | pIC50
O=C1[O][Pt]2([NH][C@@H]3CCCC[C@H]3[NH]2)[O]C1=O | 5.36
N.N.[Cl][Pt][Cl] [CDDP, cis-diamminodichloro platinum(II)] | 5.49

Next molecule, pIC50 to be filled in.
Note pIC50 for the molecule shown: F[P-](F)(F)(F)(F)F.OC[P+](CO)(CO)[Cu-3]([P+](CO)(CO)CO)([P+](CO)(CO)CO)[P+](CO)(CO)CO [CP, [Cu(thp)4][PF6]]
5.68

* * *

System: AGS
Assay: MTT cytotoxicity, AGS (stomach)
Type: cell-based, human
Conditions: MTT test, 72 hrs
Give measured pIC50 for each item. Keep answers brief.
Answers are plain numbers, as −log10 of the molar value.

Reference set, count: 2
COMPOUND | TARGET SYSTEM | REPORTED RESULT
N.N.[Cl][Pt][Cl] [CDDP, cis-diamminodichloro platinum(II)] | AGS | 5.20
O=C1[O][Pt]2([NH][C@@H]3CCCC[C@H]3[NH]2)[O]C1=O [OXP, oxaliplatin] | AGS | 5.27

Note pIC50 for the compound shown: F[P-](F)(F)(F)(F)F.OC[P+](CO)(CO)[Cu-3]([P+](CO)(CO)CO)([P+](CO)(CO)CO)[P+](CO)(CO)CO [CP, [Cu(thp)4][PF6]]
5.94

* * *

Tested on: OE21
Test: MTT cytotoxicity, OE21 (oesophagus)
Format: cell-based, human
Details: MTT test, 72 hrs
Give measured IC50 for each item. Keep answers brief.
Numbers only, in nM.

I would be grateful if you could provide IC50 for each of the following entries.
1. F[P-](F)(F)(F)(F)F.OC[P+](CO)(CO)[Cu-3]([P+](CO)(CO)CO)([P+](CO)(CO)CO)[P+](CO)(CO)CO [CP, [Cu(thp)4][PF6]]
2. N.N.[Cl][Pt][Cl] [CDDP, cis-diamminodichloro platinum(II)]

1: 1190; 2: 3760
